Values were extracted from patent US20040235049A1.

The entries below come with measured Fluorescence values attached.
System: antibodies directed against NS3 (HCV) in sera
Assay type: binding, human
Conditions: Sérum 2, NS3 positive; positivity threshold 3565

**Query** I have this sequence here, GKAIPLEAIK [Peptide 2] , and I need its recorded Fluorescence.
**Result** 8023

**Query** I have this sequence here, EAIKGGRHLL [Peptide 8] , and I need its recorded Fluorescence.
**Result** 1220

----------
Test system: antibodies directed against NS3 (HCV) in sera
Format: binding, human
Conditions: Sérum 4, NS3 positive; positivity threshold 2774
Checkbox rule: Fluorescence lower than 7000 = Satisfied; Fluorescence not lower than 7000 = Not satisfied.

• SGLGINAVAY [Peptide 15] = Not satisfied
• LDVSVIPTSG [Peptide 18] = Satisfied
• LEAIKGGRHL [Peptide 7] = Satisfied
• AAKLSGLGIN [Peptide 11] = Satisfied
• GLDVSVIPTS [Peptide 17] = Not satisfied

In the following, a different sequence is considered.
**Query** Decide: Fluorescence of LAAKLSGLGI [Peptide 10] strictly below 7000?
**Result** Not satisfied

----------
System: antibodies directed against NS3 (HCV) in sera
Assay type: binding, human
Conditions: Sérum 4, NS3 positive; positivity threshold 2774
The entries below come with measured Fluorescence values attached.
Answer using only a numeral; do not append any unit.

- ELAAKLSGLG [Peptide 9]: 2418
- VSVIPTSGDV [Peptide 20]: 11266
- EAIKGGRHLL [Peptide 8]: 2587
- GLGINAVAYY [Peptide 16]: 5602
- IPTSGDVVVV [Peptide 23]: 4505

**Query** Under antibodies directed against NS3 (HCV) in sera: Fluorescence value of VIPTSGDVVV [Peptide 22] ?
**Result** 2963

**Query** Under antibodies directed against NS3 (HCV) in sera: Fluorescence value of DVSVIPTSGD [Peptide 19] ?
**Result** 4939

**Query** Under antibodies directed against NS3 (HCV) in sera: Fluorescence value of PTSGDYVVVA [Peptide 24] ?
**Result** 3532

**Query** Under antibodies directed against NS3 (HCV) in sera: Fluorescence value of YGKAIPLEAI [Peptide 1] ?
**Result** 6357

**Query** Under antibodies directed against NS3 (HCV) in sera: Fluorescence value of AIPLEAIKGG [Peptide 4] ?
**Result** 5598

----------
The entries below come with measured Fluorescence values attached.
Tested on: antibodies directed against NS3 (HCV) in sera
Assay type: binding, human
Conditions: Sérum 1, NS3 positive; positivity threshold 2205

Record excerpt, results attached:
- PTSGDYVVVA [Peptide 24]: 1835
- IPTSGDVVVV [Peptide 23]: 2983
- LEAIKGGRHL [Peptide 7]: 1845
- DVSVIPTSGD [Peptide 19]: 9088

**Query** Under antibodies directed against NS3 (HCV) in sera: Fluorescence value of GKAIPLEAIK [Peptide 2] ?
**Result** 3590

**Query** Under antibodies directed against NS3 (HCV) in sera: Fluorescence value of YGKAIPLEAI [Peptide 1] ?
**Result** 3735

**Query** Under antibodies directed against NS3 (HCV) in sera: Fluorescence value of ELAAKLSGLG [Peptide 9] ?
**Result** 1582

**Query** Under antibodies directed against NS3 (HCV) in sera: Fluorescence value of SVIPTSGDVV [Peptide 21] ?
**Result** 3553

**Query** Under antibodies directed against NS3 (HCV) in sera: Fluorescence value of GLDVSVIPTS [Peptide 17] ?
**Result** 7976

**Query** Under antibodies directed against NS3 (HCV) in sera: Fluorescence value of GLGINAVAYY [Peptide 16] ?
**Result** 4201

**Query** Under antibodies directed against NS3 (HCV) in sera: Fluorescence value of AAKLSGLGIN [Peptide 11] ?
**Result** 2156

**Query** Under antibodies directed against NS3 (HCV) in sera: Fluorescence value of PLEAIKGGRH [Peptide 6] ?
**Result** 2789

----------
System: antibodies directed against NS3 (HCV) in sera
Format: binding, human
Settings: Sérum 2, NS3 positive; positivity threshold 3565
Checkbox rule: Fluorescence lower than 3000 = yes; Fluorescence not lower than 3000 = no.

Solved entries (count: 5):
• SGLGINAVAY [Peptide 15] = no
• PTSGDYVVVA [Peptide 24] = yes
• VSVIPTSGDV [Peptide 20] = no
• SVIPTSGDVV [Peptide 21] = no
• GLDVSVIPTS [Peptide 17] = no

**Query** Decide: Fluorescence of VIPTSGDVVV [Peptide 22] strictly below 3000?
**Result** yes

**Query** Decide: Fluorescence of ELAAKLSGLG [Peptide 9] strictly below 3000?
**Result** yes

**Query** Decide: Fluorescence of PLEAIKGGRH [Peptide 6] strictly below 3000?
**Result** no

----------
System: antibodies directed against NS3 (HCV) in sera
Format: binding, human
Conditions: Sérum 4, NS3 positive; positivity threshold 2774
VALUE KIND: Fluorescence
Answer using only a numeral; do not append any unit.

* GKAIPLEAIK [Peptide 2] | 7405
* SVIPTSGDVV [Peptide 21] | 6853
* KAIPLEAIKG [Peptide 3] | 5065
* PLEAIKGGRH [Peptide 6] | 5932

Here's the next entry for you.
**Query** I have this sequence here, IPLEAIKGGR [Peptide 5] , and I need its recorded Fluorescence.
**Result** 4739

----------
Test system: antibodies directed against NS3 (HCV) in sera
Assay type: binding, human
Details: Sérum 1, NS3 positive; positivity threshold 2205
Label scheme for Fluorescence: lower than 3000 is class 0, 3000 and above is class 1.

* EAIKGGRHLL [Peptide 8] | class 0
* LAAKLSGLGI [Peptide 10] | class 1
* KAIPLEAIKG [Peptide 3] | class 0
* VIPTSGDVVV [Peptide 22] | class 0
* AIPLEAIKGG [Peptide 4] | class 0
* LDVSVIPTSG [Peptide 18] | class 1

**Query** Is it the case that SGLGINAVAY [Peptide 15] has Fluorescence reaching or exceeding 3000?
**Result** class 1

**Query** Is it the case that IPLEAIKGGR [Peptide 5] has Fluorescence reaching or exceeding 3000?
**Result** class 0

**Query** Is it the case that VSVIPTSGDV [Peptide 20] has Fluorescence reaching or exceeding 3000?
**Result** class 1

----------
The entries below come with measured Fluorescence values attached.
System: antibodies directed against NS3 (HCV) in sera
Format: binding, human
Settings: Sérum 2, NS3 positive; positivity threshold 3565
Answer using only a numeral; do not append any unit.

Record excerpt, results attached:
* LAAKLSGLGI [Peptide 10] | 2418
* AIPLEAIKGG [Peptide 4] | 2988
* LEAIKGGRHL [Peptide 7] | 1307

**Query** Under antibodies directed against NS3 (HCV) in sera: Fluorescence value of YGKAIPLEAI [Peptide 1] ?
**Result** 3143

**Query** Under antibodies directed against NS3 (HCV) in sera: Fluorescence value of KAIPLEAIKG [Peptide 3] ?
**Result** 3161

**Query** Under antibodies directed against NS3 (HCV) in sera: Fluorescence value of LDVSVIPTSG [Peptide 18] ?
**Result** 4113

----------
The entries below come with measured Fluorescence values attached.
Tested on: antibodies directed against NS3 (HCV) in sera
Assay type: binding, human
Conditions: Sérum 2, NS3 positive; positivity threshold 3565
Answer using only a numeral; do not append any unit.

Record excerpt, results attached:
• DVSVIPTSGD [Peptide 19] = 4111
• AAKLSGLGIN [Peptide 11] = 1557
• IPLEAIKGGR [Peptide 5] = 2339
• IPTSGDVVVV [Peptide 23] = 3394

Here's the next entry for you.
**Query** Under antibodies directed against NS3 (HCV) in sera: Fluorescence value of GLGINAVAYY [Peptide 16] ?
**Result** 5577
